target: CviR (Chromobacterium violaceum, UniProt D3W065); format: binding; parameters: made in house; host or cells: E. coli BL21(DE3) pLysS, plasmid pET23b; conditions: CviR 100-500 nM
Sequence (D3W065 1-265): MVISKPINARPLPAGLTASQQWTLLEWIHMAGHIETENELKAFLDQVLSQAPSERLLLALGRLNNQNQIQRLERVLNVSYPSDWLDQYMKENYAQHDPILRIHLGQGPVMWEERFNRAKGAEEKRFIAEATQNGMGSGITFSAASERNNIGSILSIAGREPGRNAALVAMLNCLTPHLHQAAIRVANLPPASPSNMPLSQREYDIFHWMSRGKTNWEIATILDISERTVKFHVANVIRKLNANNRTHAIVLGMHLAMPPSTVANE
Reported endpoint: DNA binding of ligand-loaded CviR to vioA promoter

In [3]: df
Out[3]:
                                   compound                              study_target         observed_result
0  O=C(CCCOc1ccc(Cl)cc1)NC1CCSC1=O (centres unmarked)  CviR (Chromobacterium violaceum, UniProt D3W065)  no ability to bind DNA
1  O=C(CCCOc1ccc(Cl)cc1)NC1CCOC1=O (centres unmarked)  CviR (Chromobacterium violaceum, UniProt D3W065)  no ability to bind DNA
2          CCCCCCCCCCCCCC(=O)N[C@H]1CCOC1=O  CviR (Chromobacterium violaceum, UniProt D3W065)  no ability to bind DNA
3            CCCCCCCCCCCC(=O)N[C@H]1CCOC1=O  CviR (Chromobacterium violaceum, UniProt D3W065)  no ability to bind DNA

Ref: patent US9468624B2
